So I've got a bunch of compounds here, and I need their composite z-score values.
test: COS7 lysate on small-molecule microarray, probe aHis, 635 nm (AID 1123); conditions: COS7 cell lysate, fluorescence, higher = more signal;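 note: z-score combines 667nm fluorescence intensity with signal-to-noise per printed compound spot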
A bare number is all that is needed in reply.

Prompt line: Data request, read-out composite z-score, for C=CC[C@@]1(C(=O)NCCCOC)N=C(c2ccc(OCCCO)cc2)O[C@@H]1c1ccccc1N=[N+]=[N-]
Response line: 1.73

Prompt line: Item under review: COCCOC(=O)N1C(=O)[C@@]2(c3ccccc31)[C@H](c1ccc(O)cc1)N1[C@H](c3ccccc3)[C@H](c3ccccc3)OC(=O)[C@H]1[C@@H]2C(=O)N1CCN(c2ncccn2)CC1 . Reported composite z-score?
Response line: 1.83

Prompt line: Please report the recorded composite z-score for O[C@@H](Cc1ccccc1)[C@@H](/C=C/C1CC1)N(CC#Cc1ccccc1)Cc1ccccc1Br .
Response line: 0.41

Prompt line: State the recorded composite z-score for this entry: [N-]=[N+]=Nc1ccccc1C[C@]1(C(=O)NCC(O)CO)COC(c2ccc(OCCCO)cc2)=N1 (stereo partly specified)
Response line: 2.09

Prompt line: Need composite z-score, item COC(=O)[C@@]1(Cc2ccccc2)[C@H]2c3cc(C(=O)N4CCCC4)n(CCc4ccccn4)c3C[C@H]2CN1C(=O)c1ccccc1
Response line: 3.46

Prompt line: Field request: composite z-score | item: CCCCC=C[C@@H](NC(=O)OCc1ccccc1Cl)c1ccccc1
Response line: 2.65

----------
Hi there, I'd appreciate the recorded composite z-score for every entry that follows.
test system: Wnt5a (protein binding on small-molecule microarray); experiment: small molecules binding Wnt5a protein – biophysical, small-molecule microarray, 635/667 nm fluorescence, primary screen (AID 1142); conditions: 635 nm fluorescence, higher = more signal;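 note: fluorescence read at 667 nm with signal to noise per printed feature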
Just the number.

Prompt line: Entry CO[C@H]1O[C@H](CO)[C@@H](OC(=O)Nc2ccccc2)[C@H](OC(=O)c2cc3ccccc3[nH]2)[C@H]1OC(=O)c1cc2ccccc2[nH]1 has what composite z-score?
Response line: 0.411

Prompt line: Please report the recorded composite z-score for CC(C)C(CO)N1C(=O)[C@@H]2[C@H]3C(=O)OCC=C[C@H]3OC23C=CCN(c2ccc(Cl)cc2)C(=O)[C@@H]13 (stereo partly specified) .
Response line: -0.0632

Prompt line: Fill blank: measured composite z-score of the molecule COC(=O)C/C=C/C[C@]1(O)C(=O)N(C)c2ccccc21 is ____.
Response line: 0.0325

Prompt line: Entry Cc1ccc(S[C@]2(C(=O)NCC(F)(F)F)CC(=O)N(Cc3cc(C(F)(F)F)cc(C(F)(F)F)c3)[C@@H]2c2ccc(CO)cc2)cc1 has what composite z-score?
Response line: -0.824

Prompt line: Value lookup for composite z-score; key = NC(=O)NCC#Cc1ccc2c(c1)[C@]1(C(=O)N2)[C@H](c2ccccc2OCCO)N2[C@H](c3ccccc3)[C@H](c3ccccc3)OC(=O)[C@H]2[C@@H]1C(=O)O
Response line: -0.163

Prompt line: Which composite z-score is reported for this molecule? CCCC[C@@H]1C[C@H]1[C@@H](NC(=O)c1cccs1)c1ccccc1C(F)(F)F
Response line: 0.0098

Prompt line: Quick one: composite z-score of COC(=O)[C@]1(CCS(=O)(=O)c2ccccc2)N=C(c2ccc(OCCCO)cc2)O[C@@H]1c1ccccc1N=[N+]=[N-] ?
Response line: 1.21

Prompt line: Look up composite z-score: CC(=O)NCCCC[C@@H]1NC(=O)[C@@H]2C[C@H](C(=O)NCCCCCN)[C@H](c3cccc(OCCO)c3)N2C1=O
Response line: 0.698

Prompt line: Which measured composite z-score value corresponds to C[N+](C)(C)CCCCCCNC(=O)[C@@H]1C[C@@H]2C(=O)N3CCC[C@H]3C(=O)N2[C@@H]1c1ccc(O)cc1 ?
Response line: 0.311

Prompt line: Would you kindly share the measured composite z-score for Cc1ccc(S[C@]2(C(=O)O)CC(=O)N(C3CCCCC3)[C@@H]2c2ccc(CO)cc2I)cc1 ?
Response line: 0.0473

Prompt line: Which composite z-score value belongs to CCCC=C(CCC)[C@@H](NC(=O)c1cccs1)c1ccc(C(=O)OC)cc1 ?
Response line: 0.535

Prompt line: Please give the measured composite z-score for this molecule: COc1cc(NN2C(C(O)c3ccc(N(C)C)cc3)C=CC3C(=O)N(c4ccccc4)C(=O)C32)cc(OC)c1OC (stereo unspecified)
Response line: 0.0759

Prompt line: I would be grateful if you could share the reported composite z-score for NC(=O)[C@@]1(Cc2ccccc2)COC(c2ccc(OCCCO)cc2)=N1 .
Response line: 0.0546

Prompt line: Look up composite z-score for this molecule: COC(=O)c1c(CC[C@@H](CO)NC(=O)N[C@@H](C)Cn2cc(-c3ccccn3)nn2)oc(C(C)=O)c1C(=O)OC
Response line: 0.182

Prompt line: Which composite z-score is listed for CCCC[C@@H](O)C1=C(COC)C[C@H]2C(=O)N(Cc3ccccc3)C(=O)[C@H]2[C@H]1CO ?
Response line: 0.0314

Prompt line: Please give the measured composite z-score for this molecule: [N-]=[N+]=Nc1ccccc1[C@@H]1OC(c2ccc(OCCCO)cc2)=N[C@]1(Cc1ccccc1)C(=O)O
Response line: 0.343

Prompt line: Which measured composite z-score value corresponds to COCC(=C=CC[C@H](O)c1ccccc1OCCO)C[C@H](O)c1ccccn1 ?
Response line: 0.0611

Prompt line: Which composite z-score is listed for CCOC(=O)C1=C[C@@H](c2ccccc2)N(S(=O)(=O)c2ccc(C)cc2)[C@H]1c1ccc(OC)cc1 ?
Response line: 0.943

Prompt line: composite z-score lookup needed for CC(CO)N1C(=O)[C@@H]2[C@H]3C(=O)OCC=C[C@H]3OC23C=CCN(Cn2nnc4ccccc42)C(=O)[C@@H]13 (stereo partly specified) , thanks.
Response line: -0.33

Prompt line: Fill in: composite z-score of O=C1OCCC=C[C@H]2OC34C=CCN(c5ccc6ccccc6c5)C(=O)[C@H]3N(CCCO)C(=O)[C@@H]4C12 (stereo partly specified) is ___
Response line: -1.2

Prompt line: Entry under review: O=C1NC(=O)C2C1C=CC(C(O)c1ccco1)N2Nc1ccc(Cl)cc1Cl (stereo unspecified) . Reported composite z-score?
Response line: -0.118

Prompt line: # get_value(readout='composite z-score', item= C=CC[C@]1(C(=O)N2CCCCC2)N=C(c2ccc(OCCCO)cc2)O[C@H]1c1ccccc1CN=[N+]=[N-] )
Response line: 0.518

Prompt line: What value of measured composite z-score is listed for CCOC(=O)[C@@H]1CCCCN1C(=O)C(=O)OC ?
Response line: 0.214

Prompt line: Query (molecule): COCCOC(=O)N1C(=O)[C@@]2(c3cc(C#CC4(O)CCCCCC4)ccc31)[C@H](C(=O)N1CCc3cc(OC)c(OC)cc3C1)[C@H]1C(=O)O[C@H](c3ccccc3)[C@H](c3ccccc3)N1[C@@H]2c1ccc(OCCO)cc1 ; field requested: composite z-score
Response line: 0.536

Prompt line: Please give the measured composite z-score for this molecule: COc1ccc(C(=O)Nc2ccc(CN3C(=O)[C@]4(O[C@H](CC(=O)N5Cc6ccccc6C[C@H]5CO)[C@@H]([Si](C)(C)c5ccc(OC)cc5)[C@@H]4C)c4ccccc43)cc2)cc1
Response line: 0.307

Prompt line: Which composite z-score value is on record for C=CCC(OC(C)=O)[C@@H]1[C@@H](N(Cc2ccc(-c3ccccc3)cc2)C(=O)c2ccc(-c3ccccc3)cc2)c2cc(OCCCO)ccc2N1C(=O)c1ccc2ccccc2c1 (stereo partly specified) ?
Response line: 0.028

Prompt line: Record request: composite z-score value, item CCCCC(O)C1C=CC2C(=O)N(C)C(=O)C2N1N(c1ccccc1)c1ccccc1 (stereo unspecified)
Response line: 0.29

Prompt line: So what does the record say about composite z-score for COc1cc2c(cc1O)C(C1CC1)N(C)CC2 (stereo unspecified) ?
Response line: -0.201

Prompt line: Data request, read-out composite z-score, for CC(C)[Si]1(C(C)C)OCc2cc(C3CC3)nc(-c3ccc(Oc4ccccc4)cc3)c21
Response line: -0.223

Prompt line: # query: composite z-score of entry COCCOC(=O)N1C(=O)[C@@]2(c3cc(C#CC4=CCCCC4)ccc31)[C@H](c1ccccc1OCCO)N1[C@H](c3ccccc3)[C@H](c3ccccc3)OC(=O)[C@H]1[C@@H]2C(=O)N1CCN(c2ncccn2)CC1
Response line: 0.471

Prompt line: Given the molecule CC(C)[Si]1(C(C)C)OCc2cc(-c3ccc(-c4ccc(Cl)c(Cl)c4)o3)nc(-c3ccccc3)c21 , what is its reported composite z-score?
Response line: -0.345
